Assay: protein stability index of a GFP-peptide fusion (yeast GPS) (PSI 1-4); higher = more stable; sorted into four equal gates, so the index is relative within each strain
Settings: san1∆
# label = satisfied if protein stability index >= 2 else not satisfied

Evaluate MDVDQFDFLDDGTAQLS [YJR042W/NUP85] : protein stability index at minimum 2?
satisfied

Evaluate ALECRLASAIASGLLRA [CSN12] : protein stability index at minimum 2?
not satisfied

Evaluate IDSTDHIRKASSKKSKR [LRP1] : protein stability index at minimum 2?
not satisfied

***
Evaluate EEHHEEEPSRVDPEQEA [RPT4] : protein stability index at minimum 2?
satisfied

Evaluate EVSTSTSMTGDANLLEE [SWI3] : protein stability index at minimum 2?
satisfied

Evaluate KQENSSRFTNVSVIAPE [YMR153W/NUP53] : protein stability index at minimum 2?
not satisfied

----------
Test: protein stability index of a GFP-peptide fusion (yeast GPS) (PSI 1-4); higher = more stable; sorted into four equal gates, so the index is relative within each strain
Details: doa10∆
# label = fulfilled if protein stability index >= 3 else not fulfilled

Evaluate SESVGAFLSFLAYRNYW [YJL039C/NUP192] : protein stability index at minimum 3?
not fulfilled

Evaluate THEQWSNIQRNVLFLRL [SRP72] : protein stability index at minimum 3?
not fulfilled

Evaluate TSFGQPQSAPNQMGMGT [YOR098C/NUP1] : protein stability index at minimum 3?
not fulfilled

Evaluate RIQLMNDFTTKLINIKK [MED1] : protein stability index at minimum 3?
not fulfilled

Evaluate KENLSKSSWRQEWLANL [SIR4] : protein stability index at minimum 3?
not fulfilled

Evaluate EILNECHDELKALPMLE [MED4] : protein stability index at minimum 3?
not fulfilled

Evaluate LLPLVVSNISCLTGTVA [ECM29] : protein stability index at minimum 3?
not fulfilled

Evaluate ATALQTCAGGRLFNVVV [SMC2] : protein stability index at minimum 3?
not fulfilled

***
Evaluate MQVYLVPIERVAQLKPF [RPC37] : protein stability index at minimum 3?
not fulfilled

----------
Assay: protein stability index of a GFP-peptide fusion (yeast GPS) (PSI 1-4); higher = more stable; sorted into four equal gates, so the index is relative within each strain
Conditions: san1∆
protein stability index for assorted sequences
Answer with a bare number; do not write a unit.

Worked examples follow.
Data request, read-out protein stability index, for PVLKKKAAFLGSEVRLR [COR1]
2.97

Data request, read-out protein stability index, for DNSESHPFIPLLKEKPN [RRP6]
1.99

Data request, read-out protein stability index, for ETKDIRKQIQLLKKIIF [SRB4]
2.42

Data request, read-out protein stability index, for GATKIVREHYLRSDIPC [DIS3]
2.1

Data request, read-out protein stability index, for YTREFVEAIRRSNQYQR [NUT2]
2.88

***
Data request, read-out protein stability index, for ISMILRNISFSDNNSRI [SWI1]
2.77

Data request, read-out protein stability index, for LLSIKLPGKVNTKEEFA [SNF5]
1.78

Data request, read-out protein stability index, for EARLPSQVVWIRRLRVL [RPL19A]
1.33

----------
Experiment: protein stability index of a GFP-peptide fusion (yeast GPS) (PSI 1-4); higher = more stable; sorted into four equal gates, so the index is relative within each strain
Details: doa10∆
protein stability index for assorted sequences

Worked examples follow.
Data request, read-out protein stability index, for INIQSFKDVEHISFNFS [BRR2]
2.67

Data request, read-out protein stability index, for AQYCYKNGLYQEAFKIY [SRP72]
2.87

Data request, read-out protein stability index, for DSLRKLYVDSESTSSTE [MTW1]
2.86

Data request, read-out protein stability index, for ILQQRSKINSTELLDYA [MED4]
2.84

Data request, read-out protein stability index, for FISSGTSLLDSLISVLE [YJL039C/NUP192]
2

***
Data request, read-out protein stability index, for NKLTGKQIVFEIPSQTN [RPS7B]
2.79

Data request, read-out protein stability index, for QIISGNRVPDGFQDRSL [RPO31]
3.17

Data request, read-out protein stability index, for DVDQHGNDNNSDSNANA [SWI3]
3.01

Data request, read-out protein stability index, for AVLKKIQSKAVEQGYED [YCG1]
3.05

Data request, read-out protein stability index, for LVDENTDYLYRRLHDEN [YCS4]
2.68

Data request, read-out protein stability index, for FLKERLMEASDAFRVHI [RPB2]
1.66

Data request, read-out protein stability index, for QINNVHLIPNEIKGASE [RPN4]
2.84

Data request, read-out protein stability index, for FIAVGQILPESQWNDSS [SIR3]
2.27

Data request, read-out protein stability index, for NKSFIVDQGQIYRDRST [ITC1]
3.1

Data request, read-out protein stability index, for GAFTIALAYAGTGNNSA [RPN2]
2.09

Measured values drawn from the supplement of paper PMC9732359 for this set.
